test: Mean residence time in Wistar rat at 30 mg/kg, po; format: ADME, organism-based; set-up: dose 30 mg/kg, route oral; conditions: in vivo
experimentalReadout: MRT

Reported MRT, compound COc1ccc(OC2CN(c3c4c(nc5ccnn35)CCNCC4)C2)cc1 : ____
> 24 h

====

target: 5-hydroxytryptamine receptor 2C (Homo sapiens); experiment: Agonist activity at human recombinant 5HT2C receptor expressed in CHOK1 cells assessed as induction of intracellular calcium release by FLIPR assay
experimentalReadout: EC50 (nM)
Quick reminder: number only, in nM, skip the unit.

# example entries with known answers
Please provide the recorded EC50 for Fc1ccccc1OC1CN(c2c3c(nc4ccnn24)CCNCC3)C1 , tested on 5-hydroxytryptamine receptor 2C (Homo sapiens).
5

Please provide the recorded EC50 for c1cc(OC2CN(c3c4c(nc5ccnn35)CCNCC4)C2)ccn1 , tested on 5-hydroxytryptamine receptor 2C (Homo sapiens).
574

Others:
Please provide the recorded EC50 for Fc1cccc(OC2CN(c3c4c(nc5ccnn35)CCNCC4)C2)c1 , tested on 5-hydroxytryptamine receptor 2C (Homo sapiens).
25

Please provide the recorded EC50 for c1cc2nc3c(c(N4CCCCC4)n2n1)CCNCC3 , tested on 5-hydroxytryptamine receptor 2C (Homo sapiens).
4560

Please provide the recorded EC50 for O=C1Cc2cc(OC3CN(c4c5c(nc6ccnn46)CCNCC5)C3)ccc2N1 , tested on 5-hydroxytryptamine receptor 2C (Homo sapiens).
8.4

Please provide the recorded EC50 for COc1cccc(OC2CN(c3c4c(nc5ccnn35)CCNCC4)C2)c1 , tested on 5-hydroxytryptamine receptor 2C (Homo sapiens).
65

====

assay: Mean residence time in Wistar rat at 10 mg/kg, iv; assay type: ADME, organism-based; set-up: dose 10 mg/kg, route intravenous; details: in vivo
experimentalReadout: MRT
Note: state the figure and append the unit.

Reported MRT, compound COc1ccc(OC2CN(c3c4c(nc5ccnn35)CCNCC4)C2)cc1 : ____
13 h

====

target: 5-hydroxytryptamine receptor 2C (Homo sapiens, UniProt P28335); assay: Agonist activity at human recombinant 5HT2C receptor expressed in CHOK1 cells assessed as induction of intracellular calcium release by FLIPR assay
Sequence (P28335 whole entry): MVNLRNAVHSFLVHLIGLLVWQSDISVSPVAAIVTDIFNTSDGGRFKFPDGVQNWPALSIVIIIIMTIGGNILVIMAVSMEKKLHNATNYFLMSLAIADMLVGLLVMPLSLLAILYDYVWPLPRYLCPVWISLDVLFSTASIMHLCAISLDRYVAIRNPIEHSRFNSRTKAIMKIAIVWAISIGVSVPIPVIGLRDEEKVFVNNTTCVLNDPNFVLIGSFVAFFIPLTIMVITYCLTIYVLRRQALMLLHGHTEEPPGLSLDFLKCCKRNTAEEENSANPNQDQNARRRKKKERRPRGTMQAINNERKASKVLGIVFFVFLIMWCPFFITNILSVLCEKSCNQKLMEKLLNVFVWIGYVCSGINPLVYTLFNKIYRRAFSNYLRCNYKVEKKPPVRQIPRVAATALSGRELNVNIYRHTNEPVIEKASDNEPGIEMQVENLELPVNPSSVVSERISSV
Lab note: anything with EC50 below 100 nM is marked MET; values at 100 nM or higher are marked NOT MET.

Worked set:
State whether 100 nM exceeds EC50 recorded for c1cncc(OC2CN(c3c4c(nc5ccnn35)CCNCC4)C2)c1 .
NOT MET

State whether 100 nM exceeds EC50 recorded for c1ccc(OC2CN(c3c4c(nc5ccnn35)CCNCC4)C2)nc1 .
MET

State whether 100 nM exceeds EC50 recorded for Fc1ccc(OC2CN(c3c4c(nc5ccnn35)CCNCC4)C2)cc1 .
MET

Others:
State whether 100 nM exceeds EC50 recorded for CC(=O)N(C)c1ccc(OC2CN(c3c4c(nc5ccnn35)CCNCC4)C2)cc1 .
NOT MET

State whether 100 nM exceeds EC50 recorded for CCNc1c2c(nc3ccnn13)CCNCC2 .
MET

State whether 100 nM exceeds EC50 recorded for COc1ccccc1OC1CN(c2c3c(nc4ccnn24)CCNCC3)C1 .
MET

State whether 100 nM exceeds EC50 recorded for c1cc2nc3c(c(N4CCCC4)n2n1)CCNCC3 .
NOT MET

State whether 100 nM exceeds EC50 recorded for COc1ccc(OC2CN(c3c4c(nc5ccnn35)CCNCC4)C2)cc1 .
MET

State whether 100 nM exceeds EC50 recorded for c1ccc(OC2CN(c3c4c(nc5ccnn35)CCNCC4)C2)cc1 .
MET

State whether 100 nM exceeds EC50 recorded for CCN(C)c1c2c(nc3ccnn13)CCNCC2 .
NOT MET

State whether 100 nM exceeds EC50 recorded for c1cc2nc3c(c(N4CCC4)n2n1)CCNCC3 .
MET

====

Measured Ratio by item
test system: Caco-2; assay: Efflux ratio of permeability from […] of human Caco2 cells; type: ADME, cell-based
Output spec: single numeric token, no unit.

# example entries with known answers
Reported Ratio, compound COc1ccc(OC2CN(c3c4c(nc5ccnn35)CCNCC4)C2)cc1 : ____
1.3

Reported Ratio, compound c1ccc(OC2CN(c3c4c(nc5ccnn35)CCNCC4)C2)nc1 : ____
2.2

Others:
Reported Ratio, compound CC(=O)N(C)c1ccc(OC2CN(c3c4c(nc5ccnn35)CCNCC4)C2)cc1 : ____
6.9

Reported Ratio, compound c1ccc(OC2CN(c3c4c(nc5ccnn35)CCNCC4)C2)cc1 : ____
2.3

Reported Ratio, compound Fc1cccc(OC2CN(c3c4c(nc5ccnn35)CCNCC4)C2)c1 : ____
1.6

Reported Ratio, compound COc1cccc(OC2CN(c3c4c(nc5ccnn35)CCNCC4)C2)c1 : ____
2.1

====

assay: Volume of distribution at steady state in Wistar rat at 10 mg/kg, iv and 30 mg/kg, po; format: ADME, organism-based; conditions: in vivo, read-out: Vdss
experimentalReadout: Vd (L/kg)
Quick reminder: number only, in L/kg, skip the unit.

Reported Vd, compound COc1ccc(OC2CN(c3c4c(nc5ccnn35)CCNCC4)C2)cc1 : ____
11

====

molecular target: hERG (KCNH2) (Homo sapiens, UniProt Q12809); experiment: Inhibition of human ERG expressed in CHO cells at 10 uM by whole cell patch-clamp technique; type: cell-based; settings: CHO cells expressing human ERG
Sequence (Q12809 whole entry): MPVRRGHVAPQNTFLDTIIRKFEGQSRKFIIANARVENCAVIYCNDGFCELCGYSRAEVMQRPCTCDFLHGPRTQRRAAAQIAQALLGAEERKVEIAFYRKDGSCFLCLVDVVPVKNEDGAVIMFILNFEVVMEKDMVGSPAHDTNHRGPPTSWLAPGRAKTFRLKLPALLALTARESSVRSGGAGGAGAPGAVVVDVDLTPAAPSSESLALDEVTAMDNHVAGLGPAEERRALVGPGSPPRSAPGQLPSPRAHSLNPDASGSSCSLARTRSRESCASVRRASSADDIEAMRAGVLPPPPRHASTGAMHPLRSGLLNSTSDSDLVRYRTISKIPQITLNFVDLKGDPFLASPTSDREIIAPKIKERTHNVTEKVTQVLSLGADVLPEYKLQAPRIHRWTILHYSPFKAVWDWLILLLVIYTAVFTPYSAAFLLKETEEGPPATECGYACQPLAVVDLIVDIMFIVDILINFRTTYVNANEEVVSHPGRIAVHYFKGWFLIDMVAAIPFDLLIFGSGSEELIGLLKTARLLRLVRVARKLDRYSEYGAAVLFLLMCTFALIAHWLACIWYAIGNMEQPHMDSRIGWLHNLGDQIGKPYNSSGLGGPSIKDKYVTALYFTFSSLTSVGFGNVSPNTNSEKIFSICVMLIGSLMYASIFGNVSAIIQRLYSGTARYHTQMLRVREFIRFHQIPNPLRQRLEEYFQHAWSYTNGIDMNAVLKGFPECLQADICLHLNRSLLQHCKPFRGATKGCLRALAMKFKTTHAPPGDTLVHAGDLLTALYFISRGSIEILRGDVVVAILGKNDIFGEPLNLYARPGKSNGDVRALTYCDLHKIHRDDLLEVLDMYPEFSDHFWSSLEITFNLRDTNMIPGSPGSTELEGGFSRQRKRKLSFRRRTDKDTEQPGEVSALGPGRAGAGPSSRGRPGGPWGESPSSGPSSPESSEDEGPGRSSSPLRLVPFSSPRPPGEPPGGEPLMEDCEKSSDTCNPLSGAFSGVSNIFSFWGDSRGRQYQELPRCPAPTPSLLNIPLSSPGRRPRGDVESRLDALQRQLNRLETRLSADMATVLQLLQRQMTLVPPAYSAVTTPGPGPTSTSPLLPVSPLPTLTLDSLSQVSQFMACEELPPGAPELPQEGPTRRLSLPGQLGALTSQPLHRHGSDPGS
Measured inhibition at 10 µM by item

Reported inhibition at 10 µM, molecule c1ccc(OC2CN(c3c4c(nc5ccnn35)CCNCC4)C2)cc1 : ____
81%

Reported inhibition at 10 µM, molecule CC(=O)N(C)c1ccc(OC2CN(c3c4c(nc5ccnn35)CCNCC4)C2)cc1 : ____
5%

Reported inhibition at 10 µM, molecule c1ccc(OC2CN(c3c4c(nc5ccnn35)CCNCC4)C2)nc1 : ____
78%

Reported inhibition at 10 µM, molecule COc1ccc(OC2CN(c3c4c(nc5ccnn35)CCNCC4)C2)cc1 : ____
93%

Reported inhibition at 10 µM, molecule O=C1Cc2cc(OC3CN(c4c5c(nc6ccnn46)CCNCC5)C3)ccc2N1 : ____
11%

Others:
Reported inhibition at 10 µM, molecule Fc1cccc(OC2CN(c3c4c(nc5ccnn35)CCNCC4)C2)c1 : ____
93%

Reported inhibition at 10 µM, molecule COc1cccc(OC2CN(c3c4c(nc5ccnn35)CCNCC4)C2)c1 : ____
97%

Reported inhibition at 10 µM, molecule Fc1ccc(OC2CN(c3c4c(nc5ccnn35)CCNCC4)C2)cc1 : ____
95%

Reported inhibition at 10 µM, molecule COc1ccccc1OC1CN(c2c3c(nc4ccnn24)CCNCC3)C1 : ____
88%

====

assay: Clearance in Wistar rat at 10 mg/kg, iv and 30 mg/kg, po; assay type: ADME, organism-based; conditions: in vivo
experimentalReadout: clearance (mL/min/kg)
Quick reminder: number only, in mL/min/kg, skip the unit.

Reported clearance, molecule COc1ccc(OC2CN(c3c4c(nc5ccnn35)CCNCC4)C2)cc1 : ____
14

====

target: 5-hydroxytryptamine receptor 2A (Homo sapiens); assay: Agonist activity at human recombinant 5HT2A receptor expressed in CHOK1 cells assessed as induction of intracellular calcium release by FLIPR assay relative to 5-HT; assay type: functional, cell-based; conditions: CHO-K1
Sequence (P28223 whole entry): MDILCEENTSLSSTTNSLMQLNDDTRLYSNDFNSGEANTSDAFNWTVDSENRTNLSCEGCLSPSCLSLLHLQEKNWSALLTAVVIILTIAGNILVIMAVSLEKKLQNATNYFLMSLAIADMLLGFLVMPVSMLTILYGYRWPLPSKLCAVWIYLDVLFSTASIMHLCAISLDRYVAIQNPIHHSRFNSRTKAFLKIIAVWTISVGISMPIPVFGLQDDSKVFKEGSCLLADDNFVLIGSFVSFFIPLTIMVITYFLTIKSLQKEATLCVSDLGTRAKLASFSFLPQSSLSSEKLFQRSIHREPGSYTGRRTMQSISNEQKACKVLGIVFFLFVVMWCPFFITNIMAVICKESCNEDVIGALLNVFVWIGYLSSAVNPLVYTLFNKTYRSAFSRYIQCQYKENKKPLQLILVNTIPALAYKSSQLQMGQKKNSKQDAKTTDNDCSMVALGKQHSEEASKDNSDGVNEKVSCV
experimentalReadout: Emax
Note: state the figure and append the unit.

# example entries with known answers
Reported Emax, molecule c1cc(OC2CN(c3c4c(nc5ccnn35)CCNCC4)C2)ccn1 : ____
27%

Reported Emax, molecule COc1ccccc1OC1CN(c2c3c(nc4ccnn24)CCNCC3)C1 : ____
48%

Reported Emax, molecule O=C1Cc2cc(OC3CN(c4c5c(nc6ccnn46)CCNCC5)C3)ccc2N1 : ____
86%

Pending molecule:
Reported Emax, molecule c1cc2nc3c(c(N4CCCC4)n2n1)CCNCC3 : ____
15%

====

Measured Emax by item
target: 5-hydroxytryptamine receptor 2C (Homo sapiens); assay: Agonist activity at human recombinant 5HT2C receptor expressed in CHOK1 cells assessed as induction of intracellular calcium release by FLIPR assay relative to 5-HT; assay type: functional, cell-based; details: CHO-K1
Quick reminder: number only, in %, skip the unit.

# example entries with known answers
Reported Emax, molecule Fc1ccc(OC2CN(c3c4c(nc5ccnn35)CCNCC4)C2)cc1 : ____
95

Reported Emax, molecule c1cc2nc3c(c(N4CCCCC4)n2n1)CCNCC3 : ____
139

Reported Emax, molecule c1cc(OC2CN(c3c4c(nc5ccnn35)CCNCC4)C2)ccn1 : ____
102

Others:
Reported Emax, molecule c1ccc(OC2CN(c3c4c(nc5ccnn35)CCNCC4)C2)cc1 : ____
95

Reported Emax, molecule COc1ccc(OC2CN(c3c4c(nc5ccnn35)CCNCC4)C2)cc1 : ____
76

====

Measured Emax by item
molecular target: 5-hydroxytryptamine receptor 2B (Homo sapiens); assay: Agonist activity at human recombinant 5HT2B receptor expressed in CHOK1 cells assessed as induction of intracellular calcium release by FLIPR assay relative to 5-HT; assay type: functional, cell-based; details: CHO-K1
Sequence (P41595 whole entry): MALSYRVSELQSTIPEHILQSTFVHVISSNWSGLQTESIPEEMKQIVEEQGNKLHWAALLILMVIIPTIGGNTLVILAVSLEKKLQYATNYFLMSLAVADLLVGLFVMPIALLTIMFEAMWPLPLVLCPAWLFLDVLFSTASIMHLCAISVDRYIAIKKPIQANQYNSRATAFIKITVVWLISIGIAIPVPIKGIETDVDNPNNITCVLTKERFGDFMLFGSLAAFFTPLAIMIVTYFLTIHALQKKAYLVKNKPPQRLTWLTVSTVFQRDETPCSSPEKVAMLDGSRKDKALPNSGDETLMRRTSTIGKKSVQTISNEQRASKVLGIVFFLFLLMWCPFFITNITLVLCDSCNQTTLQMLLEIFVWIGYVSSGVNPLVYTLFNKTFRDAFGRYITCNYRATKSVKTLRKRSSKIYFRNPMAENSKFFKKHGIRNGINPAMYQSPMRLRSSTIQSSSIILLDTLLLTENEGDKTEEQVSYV
Quick reminder: number only, in %, skip the unit.

# example entries with known answers
Reported Emax, compound c1ccc(OC2CN(c3c4c(nc5ccnn35)CCNCC4)C2)nc1 : ____
71

Reported Emax, compound c1cncc(OC2CN(c3c4c(nc5ccnn35)CCNCC4)C2)c1 : ____
73

Reported Emax, compound CCN(C)c1c2c(nc3ccnn13)CCNCC2 : ____
69

Reported Emax, compound CCNc1c2c(nc3ccnn13)CCNCC2 : ____
97

Reported Emax, compound c1cc2nc3c(c(N4CCCCC4)n2n1)CCNCC3 : ____
28

Others:
Reported Emax, compound COc1cccc(OC2CN(c3c4c(nc5ccnn35)CCNCC4)C2)c1 : ____
43

Reported Emax, compound c1ccc(OC2CN(c3c4c(nc5ccnn35)CCNCC4)C2)cc1 : ____
58

Reported Emax, compound c1cc(OC2CN(c3c4c(nc5ccnn35)CCNCC4)C2)ccn1 : ____
79

Reported Emax, compound COc1ccc(OC2CN(c3c4c(nc5ccnn35)CCNCC4)C2)cc1 : ____
31

Reported Emax, compound Fc1cccc(OC2CN(c3c4c(nc5ccnn35)CCNCC4)C2)c1 : ____
23

Reported Emax, compound CC(=O)N(C)c1ccc(OC2CN(c3c4c(nc5ccnn35)CCNCC4)C2)cc1 : ____
60
